- System: SNB-78
- Test Name: NCI tumour cell line growth inhibition, 48 h
The source made the active and inactive calls. Cut-off read from the data, not from the text of the source: active = GI50 up to about 1.1 µM and inactive = higher.
Parameter GI50: see the listing below.
Endpoint Name: GI50

compound=C/C(CC(=O)Nc1ccccc1)=N\NC(N)=S experimental_result="> 100 µM (inactive)"
compound=O=C1CCCN1CCC/N=c1/cc2n(-c3ccc(Cl)cc3)c3ccccc3nc-2cc1Nc1ccc(Cl)cc1 experimental_result="18.9 µM (inactive)"
compound=C/C(CC(=O)NC1=CC=C(NC(=O)C/C(C)=N\Nc2ccccc2)CC1)=N/Nc1ccccc1 experimental_result="> 100 µM (inactive)"
compound=CS(=O)(=O)CS(=O)(=O)OCCCl experimental_result="96.8 µM (inactive)"
compound="N/N=C(\\CCN1CCCC1)CC(c1ccccc1)c1c(O)c2ccccc2oc1=O (stereo unspecified)" experimental_result="> 100 µM (inactive)"
compound=CCOC(=O)Cc1csc(Nc2ccccc2[N+](=O)[O-])n1 experimental_result="> 100 µM (inactive)"

====

- Tested on: PC-3
- Test Name: NCI tumour cell line growth inhibition, 48 h
The source made the active and inactive calls. Cut-off read from the data, not from the text of the source: active = GI50 up to about 1.1 µM and inactive = higher.
Outcome codes: active, inactive

compound=CCc1nc(N)nc(N)c1-c1ccc(NCCc2ccccc2)c([N+](=O)[O-])c1 assigned_category=active
compound="COc1cccc(CC(C)NCC(O)c2ccc(O)c(O)c2)c1 (configuration not stated)" assigned_category=inactive
compound=O=c1c(C(c2ccc(OCc3ccccc3)cc2)c2c(O)oc3ccccc3c2=O)c(O)oc2ccccc12 assigned_category=inactive
compound=Clc1nc(-[n+]2ccc(-c3ccncc3)cc2)nc(Nc2ccccc2)c1Cl assigned_category=inactive
compound=Cc1ncc([N+](=O)[O-])n1CCNC(=O)CCCCCn1ccnc1[N+](=O)[O-] assigned_category=inactive
compound=CC(C)OC(=O)c1ccc(CCC2=CC(=O)C(Br)=CC2=O)cc1 assigned_category=inactive
compound=CS(=O)(=O)CS(=O)(=O)OCCCl assigned_category=inactive
compound="CC(=O)C(CN1CCCCC1)C(c1ccccc1)c1c(O)c2ccccc2oc1=O (configuration not stated)" assigned_category=inactive
compound=O=C1C(Cl)=C(NCCN2CCOCC2)C(=O)c2ncccc21 assigned_category=inactive
compound=CN(CC(=O)O)CC(=O)O assigned_category=inactive
compound=N=c1oc2ccccc2cc1C(=O)Nc1cccc2ccccc12 assigned_category=inactive
compound=CC(C)=CCC[C@@H](C)c1c2nc3ccccc3[nH]c-2c(C)c(=O)c1O assigned_category=inactive
compound=Cn1c(N=P(c2ccccc2)(c2ccccc2)c2ccccc2)c([N+](=O)[O-])c(=O)n(C)c1=O assigned_category=inactive
compound=CN(C)c1ccc(/C=c2/c3ccccc3n3c2cc(NC(=O)NCCC[N+](C)(C)C)[n+]3C)cc1 assigned_category=inactive
compound="C[C@]12OC[C@H](c3ccccc3)N1C(=O)C1[C@H]2CC12SCCS2 (some centres not stated)" assigned_category=inactive
compound="COC(=O)c1c2c(cc3c1CC1(Cc4ccccc4C1=O)C3)CCC2 (configuration not stated)" assigned_category=inactive
compound=N#Cc1ccccc1OCCOc1ccccc1C#N assigned_category=inactive
compound=c1ccc2c(Cc3[nH]c4ccccc4c3Cc3c[nH]c4ccccc34)c[nH]c2c1 assigned_category=inactive
compound=O=C1CCCCC/C1=C\c1ccc([N+](=O)[O-])cc1 assigned_category=inactive
compound=COc1ccc(C(=O)/C=C/c2ccc(O)c(O)c2)c(OC)c1 assigned_category=inactive
compound=c1ccc2c(c1)CCc1c-2n(CCN2CCOCC2)c2ccccc12 assigned_category=inactive
compound=CCN(CCCl)c1cc(CN(C)C)cc(NC(=O)c2cc(C(=O)Nc3cc(CN(C)C)cc(N(CC)CCCl)c3)n(C)n2)c1 assigned_category=active

====

- Test system: MDA-N
- Test Name: NCI tumour cell line growth inhibition, 48 h
The source made the active and inactive calls. No stated cut-off is given here; in the data, active = GI50 up to about 1.1 µM and inactive = higher. Where a SMILES comes first, the peptide text is derived from it. The star is where a group is joined. Cbz = O=C(OCc1ccccc1)*
Outcome codes: class 1 for active, class 0 for inactive

molecule=CCN(CCCl)c1cc(CN(C)C)cc(NC(=O)c2cc(C(=O)Nc3cc(CN(C)C)cc(N(CC)CCCl)c3)n(C)n2)c1 assigned_category="class 0"
molecule=CC(C)[C@H]1NC(=O)[C@H]2N=C(O[C@@H]2C)[C@@H]2CCCN2C(=O)[C@H](Cc2ccccc2)NC(=O)[C@@H]2CSC(=N2)[C@@H](Cc2ccccc2)NC(=O)[C@@H]2CSC1=N2 assigned_category="class 0"
molecule=CC(=O)c1cccc(Nc2nc3ccc(Cl)cc3c3[nH]c4ccccc4c23)c1 assigned_category="class 0"
molecule=c1ccc(NCCSc2nc3ccccc3s2)cc1 assigned_category="class 0"
molecule=CN(C(=O)Cc1cccc(N=C=S)c1)[C@H]1CCCC[C@@H]1N1CCCC1 assigned_category="class 0"
molecule="Cc1ccc(S(=O)(=O)NC(CCC(=O)NNc2ccccc2)C(=O)NNc2ccccc2)cc1 (stereo not drawn)" assigned_category="class 0"
molecule=CC(=O)c1c(-c2ccccc2)c(-c2ccc(OCCN(C)C)cc2)n2ccccc12 assigned_category="class 0"
molecule=CCOC(=O)c1c(N)nn2c1cc1cccccc12 assigned_category="class 0"
molecule="CC(=O)C(CN1CCCCC1)C(c1ccccc1)c1c(O)c2ccccc2oc1=O (stereo not drawn)" assigned_category="class 0"
molecule=O=C1c2ccccc2-c2nnc3c(c21)-c1ccccc1C3 assigned_category="class 0"
molecule=N=C(N)SCCSC(=N)N assigned_category="class 0"
molecule=N=c1oc2ccccc2cc1C(=O)Nc1cccc2ccccc12 assigned_category="class 0"
molecule="CC(C)(C)OC(=O)C1=C(N)N(Cc2ccccc2)C2(C)C=CC(=O)C=C12 (stereo not drawn)" assigned_category="class 0"
molecule=CCc1ccc2nccc(NCCCN(C)C)c2c1[N+](=O)[O-] assigned_category="class 0"
molecule=CCO/C=N\c1c(C#N)c(-c2ccc(Cl)cc2)cn1-c1ccc(C)cc1 assigned_category="class 0"
molecule=COc1ccc(C(=O)/C=C/c2ccc(OCCCCCCCCCCOc3ccc(/C=C/C(=O)c4ccc(OC)cc4)cc3)cc2)cc1 assigned_category="class 0"
molecule="COc1cc(C=C2C(C)=NN(c3cccc(Cl)c3)C23SCC(=O)N3c2nc3ccccc3s2)ccc1O (stereo not drawn)" assigned_category="class 0"
molecule=O=C1/C(=C\Oc2ccc(F)cc2)N2CCC1CC2 assigned_category="class 0"
molecule=Brc1ccc(-c2[nH]c3ccccc3c2/N=N\c2ccccc2)cc1 assigned_category="class 0"
molecule="Clc1nc2c(C#Cc3ccccc3)ncnc2n1C1CCCCO1 (stereo not drawn)" assigned_category="class 0"
molecule=CCOC(=O)COc1ccc2c(C)cc(=O)oc2c1 assigned_category="class 0"
molecule="CSC1=NC(=O)CCN1C1OCC(OC(C)=O)C(OC(C)=O)C1OC(C)=O (stereo not drawn)" assigned_category="class 0"
molecule="CCCCN1C(=O)N(c2ccc(OCC)cc2)C2N(CCCC)C1C(C)(C)C2(C)C (stereo not drawn)" assigned_category="class 0"
molecule=CC1(C)CC(=O)c2c(nc3c(ccc4ccccc43)c2-c2ccc(NC(=O)CCCC(=O)Nc3ccc(-c4c5c(nc6c4ccc4ccccc46)CC(C)(C)CC5=O)cc3)cc2)C1 assigned_category="class 0"
molecule=O=c1ccc2ccc(CBr)cc2o1 assigned_category="class 0"
molecule=Cn1c(N=P(c2ccccc2)(c2ccccc2)c2ccccc2)c([N+](=O)[O-])c(=O)n(C)c1=O assigned_category="class 0"
molecule=Cc1cnc2[nH]c(-c3cccc(F)c3)cc(=O)c2c1 assigned_category="class 1"
molecule=Oc1cc(O)cc(-c2nc3cc(F)ccc3s2)c1 assigned_category="class 0"
molecule=CC(C)=CC(=O)c1[nH]c2ccccc2c1CC(=O)NCCc1cn(C(c2ccccc2)(c2ccccc2)c2ccccc2)cn1 assigned_category="class 0"
molecule="CC1CC[C@@]2(OC1)OC1C[C@H]3[C@@H]4CC[C@H]5CC(OC6OC(CO)C(O)C(OC7OC(CO)C(OC8OC(CO)C(O)C(OC9OC(CO)C(O)C(O)C9O)C8OC8OC(CO)C(O)C(O)C8O)C(O)C7O)C6O)[C@H](O)CC5(C)[C@H]4CCC3(C)C1[C@@H]2C (stereo partly drawn)" assigned_category="class 0"
molecule=O/N=C\c1cc(O)c(O)c(/C=N/O)c1 assigned_category="class 0"
molecule="C=C1CC(Cn2cc(Br)c(=O)[nH]c2=O)(c2ccc(Br)cc2)OC1=O (stereo not drawn)" assigned_category="class 0"
molecule=N=C(N)NS(=O)(=O)c1ccc(NC(=O)c2c3ccccc3nc3ccccc23)cc1 assigned_category="class 0"
molecule=COC(=O)Cc1c(/C=C/C(C)(C)n2cnc(CCN3C(=O)CCC3=O)c2)[nH]c2ccccc12 assigned_category="class 0"
molecule="COC(=O)C(CC(C)C)NC(=O)C(CCCNC(=N)N)NC(=O)OCc1ccccc1 (stereo not drawn) (Cbz-Arg-Leu-OMe; configuration not given here)" assigned_category="class 0"
molecule=COc1ccc2nc(-n3c(/C=C/c4ccccc4O)nc4ccccc4c3=O)sc2c1 assigned_category="class 0"
molecule=COc1cc(C)c(S(=O)(=O)N(CCCN)OCCCN)c(C)c1C assigned_category="class 0"
molecule=O=C(O)Cc1ccc([N+](=O)[O-])cc1[N+](=O)[O-] assigned_category="class 0"
